Just for reference, paper PMC8151276 is where these values come from.

test_system: TSHR (Homo sapiens, UniProt P16473)
Construct: purchased Promega (in-house HiBiT-GPCR construct library, NanoBRET)
Sequence (P16473 21-764): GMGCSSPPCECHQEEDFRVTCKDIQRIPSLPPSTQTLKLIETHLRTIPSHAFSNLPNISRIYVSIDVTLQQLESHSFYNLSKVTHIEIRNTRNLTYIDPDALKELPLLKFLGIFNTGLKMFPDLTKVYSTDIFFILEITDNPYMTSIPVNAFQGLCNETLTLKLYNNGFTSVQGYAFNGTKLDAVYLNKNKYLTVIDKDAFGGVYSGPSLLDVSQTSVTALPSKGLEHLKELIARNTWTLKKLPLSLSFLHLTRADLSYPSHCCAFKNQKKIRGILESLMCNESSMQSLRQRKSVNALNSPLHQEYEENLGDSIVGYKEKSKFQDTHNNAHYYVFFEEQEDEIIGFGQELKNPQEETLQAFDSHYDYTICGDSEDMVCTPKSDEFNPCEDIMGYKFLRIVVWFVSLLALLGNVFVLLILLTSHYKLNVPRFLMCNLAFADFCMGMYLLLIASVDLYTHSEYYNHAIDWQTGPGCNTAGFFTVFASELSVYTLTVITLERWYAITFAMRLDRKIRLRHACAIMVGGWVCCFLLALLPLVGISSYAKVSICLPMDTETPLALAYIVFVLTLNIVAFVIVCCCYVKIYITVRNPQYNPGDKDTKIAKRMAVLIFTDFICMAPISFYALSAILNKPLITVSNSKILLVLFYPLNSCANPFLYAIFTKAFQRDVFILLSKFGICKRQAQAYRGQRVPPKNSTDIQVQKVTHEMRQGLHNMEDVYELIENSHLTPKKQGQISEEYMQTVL
procedure_text: NanoBRET screen HiBiT-TSHR in HEK293
Assay type: binding
condition_notes: TSHR; tracer 1μM
metric_name: NanoBRET Fold Response
Give bare numbers.

O=C(CCc1ccc2n1[B-](F)(F)[N+]1=C(c3ccc[nH]3)C=CC1=C2)NCc1ccc(C(=O)NCCOCCC(=O)N[C@@H]2CC[C@@]3(O)[C@H]4Cc5ccc(O)c6c5[C@@]3(CCN4CC3CC3)[C@H]2O6)cc1 [Naltrexone-3-NB590] : 1.06
CC(C)N(CC[C@H](c1ccccc1)c1cc(CCNC(=O)c2ccc(CNC(=O)CCc3ccc4n3[B-](F)(F)[N+]3=C(c5ccc[nH]5)C=CC3=C4)cc2)ccc1O)C(C)C : 1.08
COc1ccccc1N1CCN(CCCCN2C(=O)c3ccc(CNC(=O)CCOCCNC(=O)c4ccc(CNC(=O)CCc5ccc6n5[B-](F)(F)[N+]5=C(c7ccc[nH]7)C=CC5=C6)cc4)cc3C2=O)CC1 : 1.04
Cc1nc2n(c(=O)c1CCN1CCC(c3noc4cc(F)ccc34)CC1)CCCC2OC(=O)NCCOCCOCCOCCOCCNC(=O)CCc1ccc2n1[B-](F)(F)[N+]1=C(c3ccc[nH]3)C=CC1=C2 (centres unmarked) : 0.96

Note: attention shifts to another entry.
QUERY: Provide NanoBRET Fold Response, recorded with TSHR (Homo sapiens, UniProt P16473), of `O=C(CCc1ccc2n1[B-](F)(F)[N+]1=C(c3ccc[nH]3)C=CC1=C2)NCCOCCOCCNC(=O)OCCOCCN1CCN(C2=Nc3ccccc3Sc3ccccc32)CC1`
RESULT: 0.92
